- Tested on: MOLT-4 leukemia
- run-description: NCI tumour cell line growth inhibition, 48 h
quantity: TGI

[[record]]
molecule = "Cc1cc(C)nc(NS(=O)(=O)c2ccc(NNc3c4ccccc4nc4c(C(=O)Nc5ccc(S(N)(=O)=O)cc5)cccc34)cc2)n1"
subject_of_test = "MOLT-4 leukemia"
quantity = "TGI"
reported_result = "> 100 µM"

[[record]]
molecule = "O=C(O)C1CCCCC1C(=O)Nn1cnnc1 (stereo not given)"
subject_of_test = "MOLT-4 leukemia"
quantity = "TGI"
reported_result = "> 100 µM"

[[record]]
molecule = "Nc1nc2c(c(=O)[nH]1)C(c1ccccc1)CC(=O)N2 (stereo not given)"
subject_of_test = "MOLT-4 leukemia"
quantity = "TGI"
reported_result = "> 100 µM"

[[record]]
molecule = "Cc1ccc(Cc2cnc(NC(=O)/C=C/c3cccc(C)c3)s2)cc1"
subject_of_test = "MOLT-4 leukemia"
quantity = "TGI"
reported_result = "> 100 µM"

[[record]]
molecule = "Cc1cccc(C)c1CO"
subject_of_test = "MOLT-4 leukemia"
quantity = "TGI"
reported_result = "> 100 µM"

[[record]]
molecule = "O=C1C=CC(=O)C12CCc1ccccc12"
subject_of_test = "MOLT-4 leukemia"
quantity = "TGI"
reported_result = "> 100 µM"


Go through the items and report each one's TGI.
1. COc1ccc(-c2cc(-c3ccc(Cl)cc3)nc(SCCCC(=O)NO)n2)cc1
2. C1CSCCSCCSCCSC1
3. C=C(NC(=O)C(=C)NC(=O)c1csc(C2=NC3c4csc(n4)C4NC(=O)c5csc(n5)C(C(C)(O)C(C)O)NC(=O)C5CSC(=N5)C(=CC)NC(=O)C(C(C)O)NC(=O)c5csc(n5)C3(CC2)NC(=O)C(C)NC(=O)C(=C)NC(=O)C(C)NC(=O)C(C(C)CC)NC2C=Cc3c(C(C)O)cc(nc3C2O)C(=O)OC4C)n1)C(N)=O (stereo not given)
4. COc1cccc(/C=C2\CCCc3ccccc3C2=O)c1

Completion:
> 22 µM
> 100 µM
5.55 µM
> 100 µM

* * *

I'd be grateful if you could share measured TGI for these entries.
- Test system: MDA-MB-231 breast
- run-description: NCI tumour cell line growth inhibition, 48 h
Give bare numbers, in µM.

Some solved entries appear below for comparison.
[[record]]
molecule = "C=C1C(=O)O[C@H]2[C@H]1CC/C(COC(=O)C(=O)c1cn(C)c3ccc(Cl)cc13)=C\\CC[C@@]1(C)O[C@@H]21"
reported_result = 4.3

[[record]]
molecule = "C=C1C(=O)O[C@@H]2[C@@H]3O[C@@H](C[C@@H]13)[C@](C)(O)CC/C=C(\\C)CCC[C@@H]2C"
reported_result = 37.5

[[record]]
molecule = "COC(=O)c1ccc(NC(=O)O/N=C(\\Cl)C(C)C)cc1"
reported_result = 15.6


Would you be so kind as to report TGI for each listed record?
1. CO[C@@H]1C[C@H]2[C@@H]3CC[C@H]([C@@H](C)CO)[C@@]3(C)CC[C@@H]2[C@@]2(C)CC[C@H]3C[C@]312
2. Cc1nc2sc(C(=O)Nc3cccc4ccccc34)c(N)c2cc1C(O)c1ccccc1 (centres undefined)
3. COc1ccc(/C(COc2ccc3c(=O)c(-c4ccccc4)coc3c2)=N\O)cc1

Completion:
[80.7, 5.36, 18.5]

* * *

- Test system: NCI-H226 lung
- run-description: NCI tumour cell line growth inhibition, 48 h
Label True when TGI is at or above 20 µM; otherwise label False.

[[record]]
item_smiles = "C=C1C(=O)O[C@H]2[C@H]1CC/C(COC(=O)c1cc3ccccc3o1)=C\\CC[C@@]1(C)O[C@@H]21"
group_label = "False"

[[record]]
item_smiles = "C=CCN1C(=O)/C(=C\\c2cc(C(C)(C)C)c(O)c(C(C)(C)C)c2)NC1=S"
group_label = "True"

[[record]]
item_smiles = "COc1ccc(NC([Se])=NC23CC4CC(CC(C4)C2)C3)cc1"
group_label = "False"


Prompt: Hi team, for CCCCCCc1ccc(C(=O)NO)cc1 , is the recorded TGI at or above 20 µM?
Completion: True

Prompt: Decide: TGI of CC1=C(C(=O)Nc2cc(=O)n(C)c(=O)n2C)C(c2cccc([N+](=O)[O-])c2)C(C(=O)Nc2cc(=O)n(C)c(=O)n2C)=C(C)N1 >= 20 µM?
Completion: True

Prompt: Hi team, for Nc1ccc2c(=O)cc(-c3cccs3)[nH]c2n1 , is the recorded TGI at or above 20 µM?
Completion: False

* * *

- Tested on: NCI-H23 lung
- run-description: NCI tumour cell line growth inhibition, 48 h
quantity: GI50

Use these answered entries as a reference point.
[[record]]
compound = "C[C@@H](O)[C@H](NC(=O)N[C@@H](CC(N)=O)c1nc([C@@H](N)CO)no1)C(=O)O"
subject_of_test = "NCI-H23 lung"
reported_result = "> 100 µM"

[[record]]
compound = "COc1ccc(-c2oc(=O)ccc2-c2cc(OC)c(OC)c(OC)c2)cc1O"
subject_of_test = "NCI-H23 lung"
reported_result = "3.91 µM"

[[record]]
compound = "O=C1CC(=O)N(C(=O)c2nn(-c3ccc(Cl)cc3)cc2O)N1"
subject_of_test = "NCI-H23 lung"
reported_result = "0.493 µM"

[[record]]
compound = "N#Cc1ccc2c(c1)C(=O)c1c-2n(CCCCl)c(=O)c2cc([N+](=O)[O-])ccc12"
subject_of_test = "NCI-H23 lung"
reported_result = "4.81 µM"

[[record]]
compound = "CC(C)C[C@H](NC(=O)Cn1ccc(NCc2ccccc2)cc1=O)B(O)O"
subject_of_test = "NCI-H23 lung"
reported_result = "5.01 µM"

[[record]]
compound = "C=C(C)[C@@H]1CC[C@]2(C(=O)O)CC[C@]3(C)[C@H](CC[C@@H]4[C@@]5(C)CCC(NC(=O)c6cccc(OC(C)=O)c6OC(C)=O)C(C)(C)[C@@H]5CC[C@]43C)[C@@H]12 (stereo not given in full)"
subject_of_test = "NCI-H23 lung"
reported_result = "0.615 µM"

[[record]]
compound = "CC1=C(C(=O)Nc2ccc(Cl)c(Cl)c2)C(c2cccc(Cl)c2)NC(=O)N1 (stereo not given)"
subject_of_test = "NCI-H23 lung"
reported_result = "12.7 µM"

[[record]]
compound = "COc1cc(-c2ccc(-c3ccc(C(=N)N)nc3)s2)cc(OC)c1OC"
subject_of_test = "NCI-H23 lung"
reported_result = "6.4 µM"

[[record]]
compound = "O=S(=O)(NCCCNc1nccc(-c2c(-c3ccc(F)c(O)c3)nc3sccn23)n1)c1ccc(F)cc1"
subject_of_test = "NCI-H23 lung"
reported_result = "2.31 µM"


Consider now this further compound.
Memo: C=C(NC(=O)C(=C)NC(=O)c1csc(C2=NC3c4csc(n4)C4NC(=O)c5csc(n5)C(C(C)(O)C(C)O)NC(=O)C5CSC(=N5)C(=CC)NC(=O)C(C(C)O)NC(=O)c5csc(n5)C3(CC2)NC(=O)C(C)NC(=O)C(=C)NC(=O)C(C)NC(=O)C(C(C)CC)NC2C=Cc3c(C(C)O)cc(nc3C2O)C(=O)OC4C)n1)C(N)=O (stereo not given) , reported GI50: 13.7 µM

* * *

- Test system: OVCAR-8 ovarian
- run-description: NCI tumour cell line growth inhibition, 48 h; in the data active = GI50 below about 0.43 µM; inactive = the rest
Bench note: report the call from active, inactive

Known results for compounds:
[[record]]
compound = "COc1ccc(/C(COc2ccc3c(=O)c(-c4ccccc4)coc3c2)=N\\O)cc1"
group_label = "inactive"

[[record]]
compound = "Cc1ccc(Cc2cnc(NC(=O)/C=C/c3cccc(C)c3)s2)cc1"
group_label = "inactive"

[[record]]
compound = "Cc1ccc(NC2=C(Cl)C(=O)N(Cc3ccc(Cl)cc3)C2=O)cc1O"
group_label = "inactive"


Prompt: Outcome logged for CC(C)[O-].CC(C)[O-].O=C1C=C([O-])C(=O)c2ccccc21.O=C1C=C([O-])C(=O)c2ccccc21.[Ti+4] in this assay:
Completion: inactive

Prompt: Look up the recorded call for COc1ccc(-c2cc(-c3cccn3C)c(C#N)c(=O)[nH]2)cc1OC in this test.
Completion: inactive

Prompt: Could you please tell me the result logged for COc1ccc(-c2cc(-c3ccc(Cl)cc3)nc(SCCCC(=O)NO)n2)cc1 in this assay?
Completion: inactive

* * *

- System: PC-3 prostate
- run-description: NCI tumour cell line growth inhibition, 48 h
Use 30 µM as the dividing line for TGI, with the line itself on the 1.0 side and lower values as 0.0.

Would you please look over these solved cases?
[[record]]
compound = "Nn1c(CCCCCCCCc2nnc(COc3ccc4ccccc4c3O)n2N)nnc1COc1ccc2ccccc2c1O"
group_label = 1.0

[[record]]
compound = "CC(=Nc1ccccc1)C1=C(O)C(Cc2ccc(O)cc2)NC1=O (stereo unspecified)"
group_label = 1.0


Prompt: Reported TGI reaches at least 30 µM for C=C1C(=O)O[C@H]2[C@H]1CC/C(COC(=O)C(=O)c1cn(C)c3ccc(Cl)cc13)=C\CC[C@@]1(C)O[C@@H]21 ?
Completion: 0.0

Prompt: Check this compound for TGI at or above 30 µM: O=c1cc(N2CCN(CCCCCOc3cc(O)c4c(=O)cc(-c5ccccc5)oc4c3)CC2)c2ccccc2o1
Completion: 1.0

Prompt: Quick check: does CC(=O)O/C=C1/C[C@H]2[C@@H]3CCC4CC(C(C)=O)CC[C@]4(C)[C@H]3CC[C@]2(C)C1=O (stereo partly specified) have TGI greater than or equal to 30 µM?
Completion: 1.0

Prompt: Record COc1cccc(/C=C2\CCCc3ccccc3C2=O)c1 ; criterion: TGI no lower than 30 µM. Met?
Completion: 1.0

Prompt: // inclusive: TGI at least 30 µM? input: COc1ccc(-c2c3c(cc4cc5c(cc24)OCO5)C(=O)OC3)cc1OC
Completion: 1.0

Prompt: Please indicate if the recorded TGI for CN(C)CC1CN=C(N)O1 (stereo unspecified) meets or exceeds 30 µM.
Completion: 1.0
